The reported measurements were obtained from patent US20240043542A1.

assayed.target: T1, mouse B7-H4 on the cell surface (mouse, UniProt Q7TSP5 25-257)
T1 construct: full-length, on transfected HEK293T cells
T1 sequence: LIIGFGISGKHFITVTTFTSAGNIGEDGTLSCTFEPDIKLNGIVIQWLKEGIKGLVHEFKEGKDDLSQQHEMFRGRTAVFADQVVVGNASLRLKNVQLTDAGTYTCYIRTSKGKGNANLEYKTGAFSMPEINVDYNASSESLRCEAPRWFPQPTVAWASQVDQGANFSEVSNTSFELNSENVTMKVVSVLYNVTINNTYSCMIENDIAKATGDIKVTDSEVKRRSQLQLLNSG
protocol.description: flow cytometry, transfected 293 cells
pEC50: −log10 of the molar value.
Let's look at some binders and their measured pEC50.
assay.metric: pEC50

binder	recorded.value
B7-H4 antibody 15465 (antibody, human IgG1, kappa, V domains shown, human IgG1/kappa) VH: QVQLQESGPGLVKPSQTLSLTCTVSGGSISSGGYYWSWIRQHPGKGLEWIGNIYYSGSTYYNPSLKSRVTISVDTSKNQFSLKLSSVTAADTAVYYCARESSTISADFDLWGRGTLVTVSS VL: DIQMTQSPSSVSASVGDRVTITCRASQGISRWLAWYQQKPGKAPKLLIYAASSLQSGVPSRFSGSGSGTDFTLTISSLQPEDFATYYCQQAHTFPYTFGGGTKVEIKR	8.27
B7-H4 antibody 20496 (antibody, human IgG1, kappa, V domains shown, human IgG1/kappa) VH: QLQLQESGPGLVKPSETLSLTCTVSGGSISSSVYYWSWIRQPPGKGLEWIGSILVSGSTYYNPSLKSRVTISVDTSKNQFSLKLSSVTAADTAVYYCARAVSFLDVWGQGTMVIVSS VL: DIQMTQSPSSLSASVGDRVTITCRASQSISSYLNWYQQKPGKAPKLLIYGASSLQSGVPSRFSGSGSGTDFTLTISSLQPEDFATYYCQQSYDPPWTFGGGTKVEIKR	8.17
